system: A549 NSCLC; experiment: NCI tumour cell line growth inhibition, 48 h; in the data active means GI50 below about 0.43 µM; inactive means the rest
Respond only with the outcome that fits, drawn from active, inactive

Test call for this compound, please: "Cc1oc2c(C(=O)N/N=C\c3ccc(O)cc3O)c[nH]c2c1C"
inactive

Test call for this compound, please: "COc1cc(/C=C/C(=O)c2ccccc2)cc(OC)c1OC"
inactive

Test call for this compound, please: Cc1ccc(C2=Nc3c(N)nc(N)nc3NC(c3cccc(Nc4ccnc5cc(C(F)(F)F)ccc45)c3)C2)cc1 (configuration not stated)
inactive

Test call for this compound, please: "Cc1cc(=O)n2nnc3c4ccccc4ccc3n12"
inactive

Test call for this compound, please: "c1ccc(CC(Cc2ccccc2)C2=NCCCN2)cc1"
inactive

Test call for this compound, please: "Cc1nc2cc(-c3nn(C(C)C)c4ncnc(N)c34)ccc2o1"
active

Test call for this compound, please: "N/C(=N\N=C/c1c2ccccc2c(Cl)c2ccccc12)NO"
inactive

Hello, the source for this data is PubChem BioAssay (NCI), in case you need it.
